- Test system: NAD-dependent protein deacetylase sirtuin-2 (Homo sapiens)
- Sequence (Q8IXJ6 whole entry): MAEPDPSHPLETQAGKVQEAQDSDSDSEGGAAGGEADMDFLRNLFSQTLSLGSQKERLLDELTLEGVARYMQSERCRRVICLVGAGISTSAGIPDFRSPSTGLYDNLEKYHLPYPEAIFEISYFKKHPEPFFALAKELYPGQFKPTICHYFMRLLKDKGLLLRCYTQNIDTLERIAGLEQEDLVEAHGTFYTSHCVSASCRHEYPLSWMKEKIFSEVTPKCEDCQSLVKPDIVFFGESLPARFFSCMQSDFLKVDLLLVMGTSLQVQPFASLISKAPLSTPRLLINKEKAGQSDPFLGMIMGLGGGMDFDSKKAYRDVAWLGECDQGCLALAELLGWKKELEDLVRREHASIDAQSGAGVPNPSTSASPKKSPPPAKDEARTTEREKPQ
- Test summary: Inhibition of human recombinant GST-tagged SIRT2 preincubated for 5 mins measured after 1 hr by Fluor de Lys-based fluorescence assay
Reported metric: IC50 (µM)

// known answers, use as guide
* CCCCC[C@@H]1CC(=O)c2cc(Cl)cc(Br)c2O1 | 4.5
* CCCCCc1cc(=O)c2cc(Cl)cc(Br)c2o1 | 5.5
* CCCCCC1CC(=O)c2cc(Cl)cc(Br)c2O1 (racemic) | 4.3
* CCCC1CC(=O)c2cc(Cl)cc(Br)c2O1 (racemic) | 10.6
* O=C1CC(CCc2ccccc2)Oc2c(Br)cc(Cl)cc21 (racemic) | 6.8
* CCCCCC1CC(=O)c2cc(Br)cc(Br)c2O1 (racemic) | 1.5

a. CCCCCC1CC(=O)c2cc(C)cc(C)c2O1 (racemic)
b. CCCCC[C@H]1CC(=O)c2cc(Cl)cc(Br)c2O1
Please compare: a and b . Report which one has the smaller IC50 value. Answer = label.
b
(b: 1.5 µM, a: 6.2 µM)
